# ASSAY_INFO: Plasma concentration of Rec 15/2615 by LC/MS-MS after vaginal application or submucosal injection
# Format: in vivo, rabbit
# SETTINGS: female, rabbit, plasma, other: vaginal application; 15 min after vaginal application of 1 ml of formulation 0.3%; read-out: Mean plasma levels of Rec 15/2615
READOUT: concentration at 15 min (ng/mL)
Answers are plain numbers, in ng/mL.

Just so you know, measured concentration at 15 min for COc1cc2nc(N3CCN(C(=O)COc4c(OC)cccc4C(C)C)CC3)nc(N)c2cc1OC [Rec 15/2615] came out at 72.5

* * *

# ASSAY_INFO: Plasma concentration of Rec 15/2615 by LC/MS-MS after vaginal application or submucosal injection
# Format: in vivo, rabbit
# SETTINGS: female, rabbit, plasma, other: vaginal application; 15 min after vaginal application of 1 ml of formulation 0.15%; read-out: Mean plasma levels of Rec 15/2615
READOUT: concentration at 15 min (ng/mL)
Answers are plain numbers, in ng/mL.

Just so you know, measured concentration at 15 min for COc1cc2nc(N3CCN(C(=O)COc4c(OC)cccc4C(C)C)CC3)nc(N)c2cc1OC came out at 45.2

* * *

# ASSAY_INFO: Plasma concentration of Rec 15/2615 by LC/MS-MS after vaginal application or submucosal injection
# Format: in vivo, rabbit
# SETTINGS: female, rabbit, plasma, other: vaginal application; 15 min after vaginal application of 1 ml of formulation 0.075%; read-out: Mean plasma levels of Rec 15/2615
READOUT: concentration at 15 min (ng/mL)
Give bare numbers, in ng/mL.

Just so you know, measured concentration at 15 min for COc1cc2nc(N3CCN(C(=O)COc4c(OC)cccc4C(C)C)CC3)nc(N)c2cc1OC came out at 10.6

Where do these numbers come from? They come from patent US20050260253A1.
